This collection of values is drawn from patent US20240299387A1.

Provide the recorded IC50 for the entries that follow.
# Target Or System: EGFR (L858R T790M C797S) (Homo sapiens, UniProt P00533, C797S/L858R/T790M)
# Construct: purchased SignalChem E10-122VG
# Sequence (P00533 25-1210 T790M/C797S/L858R): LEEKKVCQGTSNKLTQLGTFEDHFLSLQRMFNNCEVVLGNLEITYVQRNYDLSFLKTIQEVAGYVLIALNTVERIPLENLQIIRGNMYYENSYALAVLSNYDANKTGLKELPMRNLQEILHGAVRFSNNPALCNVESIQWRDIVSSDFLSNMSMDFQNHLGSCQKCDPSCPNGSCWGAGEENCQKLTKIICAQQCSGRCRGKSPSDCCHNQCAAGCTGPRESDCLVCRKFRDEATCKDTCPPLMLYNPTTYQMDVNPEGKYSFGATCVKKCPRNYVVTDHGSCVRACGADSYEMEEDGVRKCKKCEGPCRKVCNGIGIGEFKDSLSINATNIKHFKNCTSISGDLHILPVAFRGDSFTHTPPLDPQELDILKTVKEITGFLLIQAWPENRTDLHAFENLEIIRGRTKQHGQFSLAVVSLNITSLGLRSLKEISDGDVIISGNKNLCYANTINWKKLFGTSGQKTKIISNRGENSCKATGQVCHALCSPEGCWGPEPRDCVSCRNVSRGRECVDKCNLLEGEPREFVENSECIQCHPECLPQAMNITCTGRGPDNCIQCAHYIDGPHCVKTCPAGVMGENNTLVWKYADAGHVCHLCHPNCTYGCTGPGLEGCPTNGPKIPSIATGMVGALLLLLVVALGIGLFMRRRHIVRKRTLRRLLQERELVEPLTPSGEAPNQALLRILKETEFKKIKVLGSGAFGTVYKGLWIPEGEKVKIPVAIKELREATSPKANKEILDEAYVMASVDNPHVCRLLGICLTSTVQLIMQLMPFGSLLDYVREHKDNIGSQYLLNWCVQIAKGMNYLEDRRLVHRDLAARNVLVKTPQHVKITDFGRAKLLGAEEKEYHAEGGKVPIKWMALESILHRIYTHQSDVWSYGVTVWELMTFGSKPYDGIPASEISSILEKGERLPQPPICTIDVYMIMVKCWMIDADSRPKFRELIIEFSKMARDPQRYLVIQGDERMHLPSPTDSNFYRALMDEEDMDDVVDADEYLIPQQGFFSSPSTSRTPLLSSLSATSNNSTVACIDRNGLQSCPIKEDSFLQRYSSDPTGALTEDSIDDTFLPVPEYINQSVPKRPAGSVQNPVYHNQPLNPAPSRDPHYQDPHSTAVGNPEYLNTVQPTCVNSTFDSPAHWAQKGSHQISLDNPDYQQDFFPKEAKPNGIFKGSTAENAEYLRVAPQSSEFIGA
# Assay Explanation: Biochemical EGFR inhibition assay (Caliper mobility shift), EGFR LRTMCS mutant
# Test Parameters: LRTMCS (PH) IC50 (nM) @ 1 mM ATP (Num)

Entry `CC(C)c1cnc(NCCS(C)(=O)=O)c2cnc(Nc3ccnc(N4CC[C@@H](O)[C@@](C)(F)C4)n3)cc12` : reported IC50 = ? < 15 nM

# iterate: `[2H]C([2H])([2H])O[C@@H]1CCN(c2nccc(Nc3cc4c(C(C)C)ccc(OCCn5cnnc5)c4cn3)n2)C[C@@H]1F` 15 to 20 nM

# iterate: `CCNC(=O)c1ncc(C(C)C)c2cc(Nc3ccnc(N4CC[C@@H](O)[C@@](C)(F)C4)n3)ncc12` 15 to 20 nM

# iterate: `CC(C)c1ccc(OC[C@H](C)n2cnnc2)c2cnc(Nc3ccnc(N4CC[C@](C)(O)[C@H](F)C4)n3)cc12` 15 to 20 nM

# iterate: `CC(C)c1cnc(C(=O)NC2CC2)c2cnc(Nc3ccnc(N4CC[C@@H](O)[C@@](C)(F)C4)n3)cc12` 15 to 20 nM

# iterate: `CC(C)c1ccc(OCCn2ccnc2)c2cnc(Nc3ccnc(N4CC[C@@](C)(O)[C@@H](F)C4)n3)cc12` < 15 nM

# iterate: `CC(C)c1cnc(C(=O)N[C@H]2C[C@H](O)C2)c2cnc(Nc3ccnc(N4CC[C@@H](O)[C@@](C)(F)C4)n3)cc12` < 15 nM

# iterate: `CO[C@H]1CCN(c2nccc(Nc3cc4c(C(C)C)ccc(OCCn5cnnc5)c4cn3)n2)C[C@H]1F` < 15 nM

# iterate: `CC(C)c1cnc(C(=O)NC2CCOCC2)c2cnc(Nc3ccnc(N4CC[C@@H](O)[C@@](C)(F)C4)n3)cc12` 15 to 20 nM

# iterate: CNC(=O)c1ncc(C(C)C)c2cc(Nc3ccnc(N4C[C@@H](F)[C@@H](O)C(C)(C)C4)n3)ncc12 (single isomer, unassigned) 15 to 20 nM

# iterate: `CC(C)c1ccc(OCc2cnn(C)c2)c2cnc(Nc3ccnc(N4CC[C@@H](O)[C@@](C)(F)C4)n3)cc12` < 15 nM

# iterate: `CO[C@@H]1CCN(c2nccc(Nc3cc4c(C(C)C)ccc(OCCn5cnnc5)c4cn3)n2)C[C@@H]1F` < 15 nM

# iterate: `[2H]C([2H])([2H])O[C@@H]1CCN(c2nccc(Nc3cc4c(C(C)C)ccc(OC[C@H]5CCC(=O)N5C)c4cn3)n2)C[C@@H]1F` 15 to 20 nM

# iterate: CC(C)c1cnc(NC[C@H](C)N(C)C)c2cnc(Nc3ccnc(N4CC[C@@H](O)[C@@](C)(F)C4)n3)cc12 (single isomer, unassigned) 30 to 100 nM

# iterate: CC(=O)N1CC(COc2cccc3cc(Nc4ccnc(N5C[C@@H](F)[C@@H](O)C(C)(C)C5)n4)ncc23)C1 (single isomer, unassigned) 20 to 30 nM

# iterate: `CC(=O)N1CC(CNc2ccc(C(C)C)c3cc(Nc4ccnc(N5CC[C@@H](O)[C@@](C)(F)C5)n4)ncc23)C1` < 15 nM

# iterate: `CC(=O)N1CC(COc2ccc(C(C)C)c3cc(Nc4ccnc(N5CC[C@](C)(O)[C@H](F)C5)n4)ncc23)C1` 15 to 20 nM

# iterate: `CC(C)c1ccc(OC[C@H]2CN(C)C(=O)O2)c2cnc(Nc3ccnc(N4CCC(C)(O)CC4)n3)cc12` 20 to 30 nM

# iterate: `CC(C)c1ccc(OC[C@@H]2COC(=O)N2C)c2cnc(Nc3ccnc(N4CC[C@@H](OCCN(C)C)[C@@H](F)C4)n3)cc12` 15 to 20 nM

# iterate: `[2H]C([2H])([2H])O[C@@H]1CCN(c2nccc(Nc3cc4c(C(C)C)ccc(OCCn5ccnc5)c4cn3)n2)C[C@@H]1F` 15 to 20 nM

# iterate: `CC(C)c1ccc(OC[C@@H](C)n2cnnc2)c2cnc(Nc3ccnc(N4CC[C@](C)(O)[C@H](F)C4)n3)cc12` 15 to 20 nM

# iterate: `CC(C)c1cnc(C(=O)NCCN(C)C)c2cnc(Nc3ccnc(N4CC[C@@H](O)[C@@](C)(F)C4)n3)cc12` < 15 nM

# iterate: `CO[C@@H]1CCN(c2nccc(Nc3cc4c(C(C)C)cnc(NCCN(C)C)c4cn3)n2)C[C@@H]1F` 15 to 20 nM

# iterate: `CC(C)c1cnc(C(=O)NCC(C)(C)O)c2cnc(Nc3ccnc(N4CC[C@@H](O)[C@@](C)(F)C4)n3)cc12` 30 to 100 nM

# iterate: `[2H]C([2H])([2H])O[C@H]1CCN(c2nccc(Nc3cc4c(C(C)C)ccc(OCCn5ccnc5)c4cn3)n2)C[C@H]1F` 15 to 20 nM

# iterate: CC(C)c1cnc(C(=O)N[C@@H]2CNC[C@H]2F)c2cnc(Nc3ccnc(N4CC[C@@H](O)[C@@](C)(F)C4)n3)cc12 (racemic) 20 to 30 nM

* * *

# Target Or System: EGFR (L858R T790M C797S) (Homo sapiens, UniProt P00533, C797S/L858R/T790M)
# Construct: purchased SignalChem E10-122VG
# Assay Explanation: Biochemical EGFR inhibition assay (Caliper mobility shift), EGFR LRTMCS mutant
# Test Parameters: LRTMCS (PH) IC50 (nM) @ 1 mM ATP (Num)
Provide the recorded IC50 for the entries that follow.

Entry CC(C)c1cnc(C(=O)N[C@H]2CNC[C@H]2F)c2cnc(Nc3ccnc(N4CC[C@@H](O)[C@@](C)(F)C4)n3)cc12 (racemic) : reported IC50 = ? < 15 nM

# iterate: `CC(C)c1cnc(C(=O)N[C@H](C)CF)c2cnc(Nc3ccnc(N4CC[C@@H](O)[C@@](C)(F)C4)n3)cc12` 20 to 30 nM

# iterate: `CNc1ccc(C(C)C)c2cc(Nc3ccnc(N4CC[C@@H](O)[C@@](C)(F)C4)n3)ncc12` < 15 nM

# iterate: `CNc1nnc(C(C)C)c2cc(Nc3ccnc(N4CC[C@@H](O)[C@@H](F)C4)n3)ncc12` > 100 nM

# iterate: `CNC(=O)c1ncc(C(C)C)c2cc(Nc3ccnc(N4CC[C@@H](O)[C@@](C)(F)C4)n3)ncc12` 15 to 20 nM

# iterate: `CC(C)c1ccc(OCCN2CCOCC2)c2cnc(Nc3ccnc(N4CC[C@](C)(O)[C@H](F)C4)n3)cc12` < 15 nM

# iterate: `CC(C)c1ccc(OCCn2cncn2)c2cnc(Nc3ccnc(N4CC[C@](C)(O)[C@H](F)C4)n3)cc12` 15 to 20 nM

* * *

# Target Or System: EGFR L858R T790M in NCI-H1975 cell line (Homo sapiens, UniProt P00533, L858R/T790M)
# Construct: host or cells: NCI-H1975
# Sequence (P00533 25-1210 T790M/L858R): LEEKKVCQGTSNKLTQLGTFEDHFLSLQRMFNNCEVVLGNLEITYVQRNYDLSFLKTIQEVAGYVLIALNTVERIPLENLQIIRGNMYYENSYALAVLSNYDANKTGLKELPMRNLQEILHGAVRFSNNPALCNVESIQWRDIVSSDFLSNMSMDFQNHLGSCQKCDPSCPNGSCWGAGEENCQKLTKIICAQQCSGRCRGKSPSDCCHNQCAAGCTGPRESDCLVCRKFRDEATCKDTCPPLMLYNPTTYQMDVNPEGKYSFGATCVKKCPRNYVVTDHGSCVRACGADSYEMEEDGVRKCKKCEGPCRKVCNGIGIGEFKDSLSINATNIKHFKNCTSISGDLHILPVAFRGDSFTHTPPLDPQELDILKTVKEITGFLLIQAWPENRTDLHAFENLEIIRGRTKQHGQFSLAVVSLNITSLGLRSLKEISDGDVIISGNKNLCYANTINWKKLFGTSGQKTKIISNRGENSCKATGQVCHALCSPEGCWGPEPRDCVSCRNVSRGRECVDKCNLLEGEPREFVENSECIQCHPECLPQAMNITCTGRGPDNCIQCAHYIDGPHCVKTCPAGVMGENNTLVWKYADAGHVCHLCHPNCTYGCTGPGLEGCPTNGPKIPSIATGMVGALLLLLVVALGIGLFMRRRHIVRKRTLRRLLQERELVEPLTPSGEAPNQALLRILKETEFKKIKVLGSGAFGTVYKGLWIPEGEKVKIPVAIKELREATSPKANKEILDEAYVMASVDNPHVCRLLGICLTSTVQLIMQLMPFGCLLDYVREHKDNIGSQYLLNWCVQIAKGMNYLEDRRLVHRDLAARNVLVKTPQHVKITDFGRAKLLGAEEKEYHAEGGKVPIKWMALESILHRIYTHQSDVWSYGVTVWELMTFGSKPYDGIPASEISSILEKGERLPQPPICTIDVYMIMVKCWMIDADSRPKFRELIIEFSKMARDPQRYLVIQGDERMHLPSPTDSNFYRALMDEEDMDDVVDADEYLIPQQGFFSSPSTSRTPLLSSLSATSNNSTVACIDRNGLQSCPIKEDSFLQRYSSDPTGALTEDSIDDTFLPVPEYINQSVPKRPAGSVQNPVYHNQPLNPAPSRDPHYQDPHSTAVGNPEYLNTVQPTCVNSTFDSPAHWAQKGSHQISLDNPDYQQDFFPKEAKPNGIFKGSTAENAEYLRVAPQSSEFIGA
# Assay Explanation: NCI-H1975 pEGFR AlphaLISA assay
# Type: cell-based
# Test Parameters: NCI-H1975 cells (EGFR L858R T790M), p-EGFR (Tyr1068), 4-5 hours incubation; read-out: Ext pEGFR H1975 GMean IC50 (nM) Protocol: @Pharmaron AlphaLISA (Num)
Readout Kind: IC50

Entry `CC(C)c1cnc(C(=O)N[C@@H](C)CF)c2cnc(Nc3ccnc(N4CC[C@@H](O)[C@@](C)(F)C4)n3)cc12` : reported IC50 = ? > 50 nM

# iterate: `CC(C)c1cnc(C(=O)NCCF)c2cnc(Nc3ccnc(N4CC[C@@H](O)[C@@](C)(F)C4)n3)cc12` > 50 nM

# iterate: `Cc1nccn1CCOc1ccc(C(C)C)c2cc(Nc3ccnc(N4CC[C@@](C)(O)[C@@H](F)C4)n3)ncc12` 30 to 50 nM

# iterate: `CNc1ncc(C(C)C)c2cc(Nc3ccnc(N4CC[C@@H](O)[C@@H](F)C4)n3)ncc12` > 50 nM

# iterate: `CC(C)c1cnc(C(=O)NC2CS(=O)(=O)C2)c2cnc(Nc3ccnc(N4CC[C@@H](O)[C@@](C)(F)C4)n3)cc12` 30 to 50 nM

# iterate: `Cc1nncn1CCOc1ccc(C(C)C)c2cc(Nc3ccnc(N4CC[C@](C)(O)[C@H](F)C4)n3)ncc12` > 50 nM

# iterate: `CC(C)c1ccc(OCCn2ccnc2)c2cnc(Nc3ccnc(N4CCC(C)(O)CC4)n3)cc12` > 50 nM

# iterate: `CC(C)c1ccc(OCCn2cnnc2)c2cnc(Nc3ccnc(N4CC[C@@](C)(O)[C@@H](F)C4)n3)cc12` 20 to 30 nM

# iterate: `CC(C)c1cnc(C(=O)NCCN(C)C)c2cnc(Nc3ccnc(N4CC[C@@H](O)[C@@](C)(F)C4)n3)cc12` 30 to 50 nM

# iterate: `CNCCO[C@@H]1CCN(c2nccc(Nc3cc4c(C(C)C)ccc(OC[C@@H]5COC(=O)N5C)c4cn3)n2)C[C@@H]1F` > 50 nM

# iterate: `CCNC(=O)c1ncc(C(C)C)c2cc(Nc3ccnc(N4CC[C@@H](O)[C@@](C)(F)C4)n3)ncc12` > 50 nM

# iterate: CC(C)c1cnc(C(=O)N[C@@H]2CN(C)C[C@H]2F)c2cnc(Nc3ccnc(N4CC[C@@H](O)[C@@](C)(F)C4)n3)cc12 (single isomer, unassigned) [Example 90] 10 to 20 nM

# iterate: `CO[C@H]1C[C@H](NC(=O)c2ncc(C(C)C)c3cc(Nc4ccnc(N5CC[C@@H](O)[C@@](C)(F)C5)n4)ncc23)C1` 20 to 30 nM

# iterate: `[2H]C([2H])([2H])O[C@@H]1CCN(c2nccc(Nc3cc4c(C(C)C)ccc(OC[C@H]5CCC(=O)N5C)c4cn3)n2)C[C@@H]1F` > 50 nM
